The reported numbers originate from a protein production outcome set (Wang et al. 2014).

# MEASUREMENT_NOTES: label from the status in PepcDB records
METRIC: protein production

# query: protein production of entry MSLANLSELPNIGKVLEQDLIKAGIKTPVELKDVGSKEAFLRIWENDSSVCMSELYALEGAVQGIRWHGLDEAKKIELKKFHQSLEGHHHHHH
not failed

Give the measured protein production of MEAWIFEIMRAVGRFFLHPAVYVFLISSIFVGYLRMLRERKDFSFKVYDIWFELRTSLLAGVKYGLIVSIITIGLGLVVSKASLWAILLWTLLFGLTAMYRYLSAAYTFSVAIVCVLLSSKLPVSFLQLGEGEENTIVSLAILLGIMLVVEGLLISKNAVGYSTPKIRKGKRGLKIGLHESKRLWIVPIFILVPGEAVTQFISWWPVVSIGSHTYSLFLVPFLIGFMRRIRSYEPTEALLFTGRRVYGLAGLVLVLGIASYWWHVLAIIAMGVAMLGRFTISMQEKIADETRPAYFAARNDGLVVLDTIPNTIGAELNLLPGEMITKVNGVIPRSAEEFYDALQTKTTGAFCKLEVLDTNGELRLAQTALYAGGHHELGIVFVQQEHEWDSEAM .
failed

Which protein production is listed for MLTFEKVLEIFADYLAADKTIEVYISRHGCVRVEFDQDFHYCTGEVCHTPRKLFDLLSDDYQTYLEIELTKGRRELTEDDIKEADTLCKRYLDRWKEELGLEHHHHHH ?
not failed

Data request, read-out protein production, for MSGAVPETPYHQRWLAFPDAVSSYRPLESRLAGTSRATADNRTPCTGRLGTPRVFLMATDDVSKAYSSPTFDAEALLGTVISAEDPDRVLIEPWATGVDGVILDVGSGTGRWTGHLASLGHQIEGLEPATRLVELARQTHPSVTFHHGTITDLSDSPKRWAGLLAWYSLIHMGPGELPDALVALRMAVEDGGGLLMSFFSGPSLEPMYHPVATAYRWPLPELAQALETAGFQVTSSHWDPRFPHAYLTAEASKQNLALEHHHHHH
failed

Data request, read-out protein production, for MSVKTWRKIAIDIIRDFDHNIMPLFGNPKASETISISPSGDETKVVDKVAENIIISKFKDLGVNVVSEEIGRIDQGSDYTVVVDPLDGSYNFINGIPFFAVSVAIFHEKDPIYAFIYEPIVERLYEGIPGKGSYLNGEKIKVRELAEKPSISFYTKGKGTKIIDKVKRTRTLGAIALELAYLARGALDAVVDIRNYLRPTDIAAGVVIAREAGAIVKDLDGKDVEITFSATEKVNIIAANNEELLETILRSIEK
not failed

New cases:
Look up protein production for this sequence: MAKEGEHSGAKEVKLTKPKISLSDLTFVIYVTTREKLSSSTISCEEIPLKKCGAELECGSNDRFHIQVENLSHMGISKSRMAGVKIECEVIYKEDSEDEAVVRIVNAERPLGTNFGWLNNDLLAPLAHRGLTAEIQLSFNSELLDKIDLQIFHRGEGRYFSQDDTLGYLQCFFPSKI
failed

Recorded protein production of MLLSKKSEYKTLSTVEHPQYIVFCDFDETYFPHTIDEQKQQDIYELEDYLEQKSKDGELIIGWVTGSSIESILDKMGRGKFRYFPHFIASDLGTEITYFSEHNFGQQDNKWNSRINEGFSKEKVEKLVKQLHENHNILLNPQTQLGKSRYKHNFYYQEQDEINDKKNLLAIEKICEEYGVSVNINRCNPLAGDPEDSYDVDFIPIGTGKNEIVTFMLEKYNLNTERAIAFGDSGNDVRMLQTVGNGYLLKNATQEAKNLHNLITDSEYSKGITNTLKKLIGFMRRK , please.
not failed
